Cited source for all entries: ChEMBL document CHEMBL4219195

- Test system: HepG2
- experimental-details: Cytotoxicity against human HepG2 cells assessed as decrease in cell viability after 72 hrs by MTT assay
- Format: cell-based
- test-parameters: HepG2, 72 h
readout-kind: IC50

Some compounds with recorded IC50:
compound=O=C(Cc1ccc(OC/C=C/S(=O)(=O)c2ccccc2)cc1)NC12CC3CC(CC(C3)C1)C2 assayed_system=HepG2 readout_kind=IC50 recorded_result="> 20 µM"
compound=O=C(Cc1ccc(OC/C=C/S(=O)(=O)c2ccccc2)cc1)Oc1ccc(Cc2ccccc2)cc1 assayed_system=HepG2 readout_kind=IC50 recorded_result="> 80 µM"
compound=O=C(Cc1ccc(OC/C=C/S(=O)(=O)c2ccccc2)cc1)Oc1ccc(C(F)(F)F)cc1 assayed_system=HepG2 readout_kind=IC50 recorded_result="> 20 µM"
compound="O=C(Cc1ccc(OC/C=C/S(=O)(=O)c2ccccc2)cc1)OC1CCC[C@@H]2CCCC[C@H]12 (stereo partly specified)" assayed_system=HepG2 readout_kind=IC50 recorded_result="> 20 µM"
compound="CC1(C)C2CC[C@]1(C)C(NC(=O)Cc1ccc(OC/C=C/S(=O)(=O)c3ccccc3)cc1)C2 (stereo partly specified)" assayed_system=HepG2 readout_kind=IC50 recorded_result="> 20 µM"
compound=CC(C)c1ccc(OC(=O)Cc2ccc(OC/C=C/S(=O)(=O)c3ccccc3)cc2)cc1 assayed_system=HepG2 readout_kind=IC50 recorded_result="> 20 µM"

Lookup: Name the recorded IC50 for `C[C@H](NC(=O)Cc1ccc(OC/C=C/S(=O)(=O)c2ccccc2)cc1)c1ccc2ccccc2c1` .
Found: > 20 µM

Lookup: Name the recorded IC50 for CC1(C)C2CC=C(COC(=O)Cc3ccc(OC/C=C/S(=O)(=O)c4ccccc4)cc3)C1C2 (stereo unspecified) .
Found: > 20 µM

Lookup: Name the recorded IC50 for `CCCN1CCC(NC(=O)Cc2ccc(OC/C=C/S(=O)(=O)c3ccccc3)cc2)CC1` .
Found: > 20 µM

Lookup: Name the recorded IC50 for CC1(C)C2CC[C@]1(C)C(OC(=O)Cc1ccc(OC/C=C/S(=O)(=O)c3ccccc3)cc1)C2 (stereo partly specified) .
Found: > 20 µM
